Examples of molecules with documented PAMPA_R3 follow.
- CONDITION_CONTEXT: PAMPA
Where a SMILES comes first, the peptide text is derived from it. [ ]: non-standard residue; d: D form. NMeF = CN[C@@H](Cc1ccccc1)C(=O)O; NMeL = CN[C@@H](CC(C)C)C(=O)O; dNMeA = CN[C@H](C)C(=O)O
Kindly provide the number alone.

MOLECULE	PAMPA_R3
CC(C)C[C@@H]1NC(=O)[C@H]2CCCN2C(=O)[C@@H]2CCCN2C(=O)[C@H](CC(C)C)NC(=O)[C@@H](CC(C)C)NC(=O)[C@@H](C)N(C)C(=O)[C@@H](C)N(C)C(=O)[C@@H](C(C)C)NC1=O [Design D8.6, LEU PRO DPRO LEU DVAL *DALA *DALA DLEU] (cyclo(LP[dP]L[dV][dNMeA][dNMeA][dL]))	3.44E-06

Consider the molecule shown here: CC[C@@H](C)[C@H]1NC(=O)[C@H]2CCCN2C(=O)[C@H]([C@@H](C)CC)NC(=O)[C@H](CC(C)C)N(C)C(=O)[C@H]2CCCN2C(=O)[C@@H]2CCCN2C(=O)[C@H](Cc2ccccc2)N(C)C(=O)[C@H](Cc2ccccc2)NC(=O)[C@H]([C@@H](C)CC)NC1=O [Design D9.13, DPRO DILE ILE PHE *PHE PRO DPRO *LEU ILE] (cyclo(F[NMeF]P[dP][NMeL]I[dP][dI]I)) What is its recorded PAMPA_R3? 3.09E-06
